- target-under-test: HUα2 wild-type (Escherichia coli (MG1655-derived …, UniProt P0ACF0 1-90))
- experiment-summary: fluorescence polarization
metric-name: pKd
Please treat pKd as minus the base-10 logarithm of the molar concentration.

Give the measured pKd of cruciform DNA (structured_DNA) DNA 1: CCTAGCAAGGGGCTGCTACCTTTGGTAGCAGCCTGAGCGGTGG DNA 2: CCACCGCTCAACTCAACTGCTTTGCAGTTGAGTCCTTGCTAGG .
6.75
